TESTED TARGET: hDOR-1 (Homo sapiens, UniProt P41143)
Construct: purchased Amersham Biosciences; host or cells: stably transfected HEK-293 cells (membrane preparation)
Sequence (P41143 whole entry): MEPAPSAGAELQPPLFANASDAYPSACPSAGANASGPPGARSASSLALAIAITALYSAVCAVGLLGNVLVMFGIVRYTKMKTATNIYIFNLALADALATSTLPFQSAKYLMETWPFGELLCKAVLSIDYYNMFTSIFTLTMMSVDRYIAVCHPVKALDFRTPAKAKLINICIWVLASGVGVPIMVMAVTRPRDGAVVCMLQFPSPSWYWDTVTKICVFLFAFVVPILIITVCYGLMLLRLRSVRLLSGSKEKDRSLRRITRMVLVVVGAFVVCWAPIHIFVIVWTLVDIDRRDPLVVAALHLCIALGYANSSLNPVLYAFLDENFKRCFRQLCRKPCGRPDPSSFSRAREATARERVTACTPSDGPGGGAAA
PROTOCOL DETAILS: Opioid receptor competitive binding assay, DOR
PROTOCOL CONDITIONS: Table 13; selectivity for MOR versus DOR (footnote: 3H-DPDPE, hDOR-1)

>  <COMPOUND>
Cc1cc(O)cc(C)c1CC(N)C(O)C/C=C/C(O)C(Cc1ccccc1)C(=O)NCCc1ccccc1 (single isomer, unassigned) [(S,S,S,R)-26]

>  <Ki DOR/Ki MOR>
340

$$$$
>  <COMPOUND>
Cc1cc(O)cc(C)c1CC(N)C(O)C/C=C/C(O)C(Cc1ccccc1)C(=O)NCCc1ccccc1 (single isomer, unassigned) [(S,S,R,R)-26]

>  <Ki DOR/Ki MOR>
70

$$$$
>  <COMPOUND>
Cc1cc(O)cc(C)c1CC(N)C(O)C/C=C/C(O)C(Cc1ccccc1)C(=O)NCCc1ccccc1 (single isomer, unassigned) [(S,R,R,R)-26]

>  <Ki DOR/Ki MOR>
91

$$$$
>  <COMPOUND>
Cc1cc(O)cc(C)c1CC(N)C(O)C/C=C/C(O)C(Cc1ccccc1)C(=O)NC(Cc1ccccc1)C(N)=O (single isomer, unassigned) [(S,S,S,R)-25]

>  <Ki DOR/Ki MOR>
230

$$$$
>  <COMPOUND>
Cc1cc(O)cc(C)c1CC(N)C(O)C/C=C/C(O)C(Cc1ccccc1)C(=O)NC(Cc1ccccc1)C(N)=O (single isomer, unassigned) [(S,R,R,R)-25]

>  <Ki DOR/Ki MOR>
53

$$$$
>  <COMPOUND>
Cc1cc(O)cc(C)c1CC(N)C(O)C/C=C/C(O)C(Cc1ccccc1)C(=O)NC(Cc1ccccc1)C(N)=O (single isomer, unassigned) [(S,S,R,S)-25]

>  <Ki DOR/Ki MOR>
190

$$$$
>  <COMPOUND>
Cc1cc(O)cc(C)c1CC(N)C(O)C/C=C/C(O)C(Cc1ccccc1)C(=O)NCCc1ccccc1 (single isomer, unassigned) [(S,R,S,R)-26]

>  <Ki DOR/Ki MOR>
510

$$$$
>  <COMPOUND>
Cc1cc(O)cc(C)c1CC(N)C(O)C/C=C/C(O)C(Cc1ccccc1)C(=O)OC(CO)Cc1ccccc1 [(S,S,S,R)-30]

>  <Ki DOR/Ki MOR>
39

$$$$
>  <COMPOUND>
Cc1cc(O)cc(C)c1CC(N)C(O)C/C=C/C(O)C(Cc1ccccc1)C(=O)NC(Cc1ccccc1)C(N)=O (single isomer, unassigned) [(S,S,R,R)-25]

>  <Ki DOR/Ki MOR>
86

$$$$
